Test system: HCT-116 colon
TEST_DETAILS: NCI tumour cell line growth inhibition, 48 h
VALUE_KIND: TGI

Tested on HCT-116 colon: COc1cc(C2C(Cl)C(=O)N2NC(=O)c2ccc(NC(C)=O)cc2)ccc1O (stereo unspecified) . Observed TGI: > 100 µM

Tested on HCT-116 colon: CN(C)c1ccc(/C=C/C(=O)N[C@@H]2C(=O)N3[C@@H]2SC(C)(C)[C@@H]3C(=O)O)cc1 . Observed TGI: > 100 µM

Tested on HCT-116 colon: CN(C)c1nc(=NCc2ccco2)ss1 . Observed TGI: 35 µM

Tested on HCT-116 colon: CN(C)c1ccc(/C=C2\N=C(c3ccccc3)N(c3cc(C(F)(F)F)ccc3Cl)C2=O)cc1 . Observed TGI: > 100 µM

Tested on HCT-116 colon: Nc1ccc(Nc2cc(=O)[nH]c(=O)[nH]2)cc1 . Observed TGI: > 100 µM

Tested on HCT-116 colon: CCCn1cnc2c(SCC(=O)O)nc(N)nc21 . Observed TGI: > 100 µM

----------
Provide the reported TGI of each item.
System: A549 NSCLC
TEST_DETAILS: NCI tumour cell line growth inhibition, 48 h

Consider CC1(C)C2CCC3(OCCO3)C1C(O)C2 (stereo unspecified) . Its measured TGI is > 100 µM

Consider NCCCCC1NC(=O)C(CC(=O)O)NC(=O)CNC(=O)C(CCCN=C(N)N)NC(=O)C(N)CSSCC(C(=O)O)NC(=O)C(CC(=O)O)NC(=O)C2CCCN2C(=O)CNC1=O (stereo unspecified) . Its measured TGI is > 100 µM

Consider c1cc(-c2nnc(SSc3ncnc4nc[nH]c34)o2)ccn1 . Its measured TGI is > 100 µM

Consider O=C1C2=C(C(=O)c3cnccc31)C1C=CC2CC1 (stereo unspecified) . Its measured TGI is 8.73 µM

Consider Clc1cccc(N2CCN(CCCN3CCc4c([nH]c5ccccc45)C3c3cccnc3)CC2)c1 (stereo unspecified) . Its measured TGI is 36.9 µM

Consider O=C(O)/C=C\C(=O)Nc1ccccn1 . Its measured TGI is > 100 µM

Consider Cc1ccc(N(O)C(C)(C)C)cc1 . Its measured TGI is > 100 µM

Consider N#C/C(=C\c1ccc([N+](=O)[O-])s1)c1nc2cc(Cl)ccc2s1 . Its measured TGI is > 100 µM

Consider CN(C)CCNC(=O)c1ccc(-c2nc3ccc4[nH]ncc4c3c3c2C2CCC3C2)cc1 (stereo unspecified) . Its measured TGI is 12.8 µM

Consider CCSCN(C)c1nc(N(C)C)nc(N(C)C)n1 . Its measured TGI is > 100 µM

Consider CC1(C)C(CCO)CC1n1ccc(=O)[nH]c1=O (stereo unspecified) . Its measured TGI is > 100 µM

----------
System: RPMI-8226 leukemia
TEST_DETAILS: NCI tumour cell line growth inhibition, 48 h
VALUE_KIND: TGI (µM)
All answers are understood in µM, so give the number only.

Tested on RPMI-8226 leukemia: CN1CCN(CCOc2ccc(-c3cnc4c(-c5cccc(F)c5)cnn4c3)cc2)CC1 . Observed TGI: 5.25

Tested on RPMI-8226 leukemia: Cc1cccc2c1c1ccc3c(c1n2C)C(=O)C=CC3=O . Observed TGI: 13.2

Tested on RPMI-8226 leukemia: Cc1c(OCc2ccccc2)c(=O)ccn1CCc1c[nH]c2ccccc12 . Observed TGI: 59.3

Tested on RPMI-8226 leukemia: CC(C)=CCOc1cc(NC(=S)c2ccsc2C)ccc1Cl . Observed TGI: 53.1
